Sourced from paper PMC5413048

- subject-of-test: MD-2 (TLR4/MD-2 complex) (Homo sapiens, UniProt Q9Y6Y9)
- Construct: gene LY96; MD2 Glu17—Asn160 + 10-His Tag, co-expressed with TLR4 ectodomain Glu24—Lys631 + 10-His Tag; with TLR4 (O00206), ectodomain Glu24—Lys631
- Sequence (Q9Y6Y9 17-160): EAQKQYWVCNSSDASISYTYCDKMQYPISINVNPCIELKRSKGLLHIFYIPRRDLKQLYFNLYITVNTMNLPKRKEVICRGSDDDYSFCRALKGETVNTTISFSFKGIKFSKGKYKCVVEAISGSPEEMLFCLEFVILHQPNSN
- Sequence (O00206 24-631 partner): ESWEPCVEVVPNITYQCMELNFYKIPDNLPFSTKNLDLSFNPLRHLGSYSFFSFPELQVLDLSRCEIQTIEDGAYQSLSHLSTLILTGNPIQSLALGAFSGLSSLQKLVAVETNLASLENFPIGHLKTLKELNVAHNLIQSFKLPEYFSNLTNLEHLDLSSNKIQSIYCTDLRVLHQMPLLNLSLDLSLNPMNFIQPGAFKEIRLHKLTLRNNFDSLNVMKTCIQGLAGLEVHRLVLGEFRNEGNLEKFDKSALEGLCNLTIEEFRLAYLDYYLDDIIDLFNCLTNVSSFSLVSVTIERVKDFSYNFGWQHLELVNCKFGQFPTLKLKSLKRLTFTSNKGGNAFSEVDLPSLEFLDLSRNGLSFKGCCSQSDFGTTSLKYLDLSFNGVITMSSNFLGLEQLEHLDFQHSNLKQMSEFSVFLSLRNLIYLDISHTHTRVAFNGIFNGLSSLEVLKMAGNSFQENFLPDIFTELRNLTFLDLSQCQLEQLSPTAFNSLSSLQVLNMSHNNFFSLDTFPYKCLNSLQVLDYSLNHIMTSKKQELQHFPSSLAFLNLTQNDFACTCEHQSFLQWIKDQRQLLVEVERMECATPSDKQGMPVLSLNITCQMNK
- measurement-notes: isothermal titration calorimetry of PA into recombinant human TLR4/MD-2 ([…]°C)
- Assay type: binding

compound	Kd [µM]
CCCCCCCCCCCCCCCC(=O)O [PA, palmitic acid]	2.3
